Cited source: patent US20220298163A1

This listing pairs compounds with measured IC50.
target: Btk kinase (aa2-659, Carna Biosciences) (Homo sapiens, UniProt Q06187); construct: purchased Carna Biosciences; assay: Btk kinase enzymatic assay (TR-FRET); format: biochemical; conditions: TR-FRET, 30 μM ATP, compound incubated with kinase 60 minutes
Sequence (Q06187 2-659): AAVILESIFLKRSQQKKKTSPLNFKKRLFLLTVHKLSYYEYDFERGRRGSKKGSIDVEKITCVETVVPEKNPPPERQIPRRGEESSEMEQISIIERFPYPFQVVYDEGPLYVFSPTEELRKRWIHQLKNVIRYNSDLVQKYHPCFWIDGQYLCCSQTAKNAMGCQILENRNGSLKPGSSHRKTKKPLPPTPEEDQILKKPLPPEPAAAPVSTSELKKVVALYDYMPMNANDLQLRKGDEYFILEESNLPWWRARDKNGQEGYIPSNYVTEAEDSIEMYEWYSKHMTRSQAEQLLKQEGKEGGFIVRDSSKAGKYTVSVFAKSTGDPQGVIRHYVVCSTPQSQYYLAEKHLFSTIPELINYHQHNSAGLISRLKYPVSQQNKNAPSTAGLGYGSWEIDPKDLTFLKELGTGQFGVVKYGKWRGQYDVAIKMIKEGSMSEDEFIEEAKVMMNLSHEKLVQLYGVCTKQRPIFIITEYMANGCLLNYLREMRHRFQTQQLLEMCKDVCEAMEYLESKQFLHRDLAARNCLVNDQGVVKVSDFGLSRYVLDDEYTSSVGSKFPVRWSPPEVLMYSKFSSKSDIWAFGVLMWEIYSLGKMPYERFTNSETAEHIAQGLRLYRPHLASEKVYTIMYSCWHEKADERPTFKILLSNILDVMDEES
# number only, unit nM dropped from output

So what does the record say about IC50 for C=CC(=O)N1CCC(C2CCNc3c(C(N)=O)c(-c4cc(Cl)c(C)c(OC)c4)nn32)CC1 (stereo not shown) ?
2.3

New cases:
So what does the record say about IC50 for C=CC(=O)N1CCC(C2CCNc3c(C(N)=O)c(-c4cc(OC)c(C5CC5)c(OC(C)C)c4)nn32)CC1 (stereo not shown) ?
4.4

So what does the record say about IC50 for C=CC(=O)N1CCC(C2CCNc3c(C(N)=O)c(-c4cc(OC)c(C)c(OCC)c4)nn32)CC1 (stereo not shown) ?
4.7

So what does the record say about IC50 for C=CC(=O)N1CCC(C2CCNc3c(C(N)=O)c(-c4cc(OC)c(-c5ccsc5)c(OC)c4)nn32)CC1 (stereo not shown) ?
16
